Origin of measurements: patent US20030144233A1

Quick list: % apoptosis per entry.
system: Human Jurkat T cell leukemia cells; assay: Analysis of apoptosis by Annexin V FITC / propidium iodide staining and flow cytometry; format: cell-based; details: Jurkat T cells, oligonucleotides at final concentration of 53 μM; Table 3
measure-name: % apoptosis (%)

>>> value_reported("TGTGTG")
66
>>> value_reported("GGTTGG")
66
>>> value_reported("TGGTTG")
69
>>> value_reported("GGAAGG")
59
>>> value_reported("GTGTGT")
67
>>> value_reported("GGGTGG")
50
